test: qHTS assay to identify small molecule antagonists of the androgen receptor (AR) signaling pathway - cell viability counter screen (AID 743033; also: nearly all actives have a fitted effect of over 45% in size); conditions: AR-bla HEK293 viability, CellTiter-Glo luminescence, 16 h; series mostly up to 58.5 µM
Records with an inconclusive call do not appear. Activity calls are given as the source filed them. Calls follow the shape of the dose curve; as a rule, active = well fitted cell-killing curve with a large enough effect in the repeat runs; inconclusive = weak or mixed curves; inactive = no such curve, though single readings can be large or run the other way.
Classes used: True for active, False for inactive

{"columns": ["mol", "class name"],
 "data": [
  ["c1cnc2c(c1)ccc1cccnc12", "True"],
  ["CCCCCNCCCCC", "False"],
  ["Clc1cccc(Cl)c1NC1=NCCN1", "False"],
  ["CCCCCC(C)=O", "False"],
  ["O=c1c(O)c(-c2ccc(O)c(O)c2)oc2cc(O)cc(O)c12", "False"],
  ["CC(=O)OCc1ccc2c(c1)OCO2", "False"],
  ["NCCNCCNCCN", "False"],
  ["COC(=O)/C=C\\C(=O)OC", "False"],
  ["Oc1ccc(Cc2ccccc2O)cc1", "False"],
  ["O=[N+]([O-])c1cc(C(F)(F)F)ccc1Cl", "False"],
  ["OCc1ccc(Cl)cc1Cl", "False"],
  ["Cc1cccc(C)c1[N+](=O)[O-]", "False"],
  ["C=CC(C)(C)C", "False"],
  ["COc1ccc(N)c(OC)c1", "False"],
  ["Cc1ccc(Cl)cc1", "False"],
  ["CCN(CC)CCNC(=O)c1ccc(N)cc1", "False"]
]}

====

Property: activity change, positive = activation; scope: individual compounds
test: qHTS assay to identify small molecule agonists of the estrogen related receptor (ERR) signaling pathway from Tox21 library (AID 1224849); details: ERR reporter cell line, ONE-Glo luciferase, 18 h; at 92.4 µM (top of the series); also: % is scaled to controls: 0 for no effect and ±100 for the full control effect; nearly all actives have a fitted effect of over 15% in size
parameter measured: activity change, positive = activation (%)

{"columns": ["mol", "result number"],
 "data": [
  ["COC(=O)/C=C\\C(=O)OC", 2.62],
  ["COc1ccccc1[N+](=O)[O-]", 2.88],
  ["CN=C(NC#N)NCCSCc1nc[nH]c1C", 2.07],
  ["OC[C@H]1O[C@@H](Oc2ccc(O)cc2)[C@H](O)[C@@H](O)[C@@H]1O", 7.42],
  ["O=[N+]([O-])c1cc(C(F)(F)F)ccc1Cl", 3.85],
  ["CC(=O)Nc1ccc(CC(=O)O)cc1", 9.59],
  ["CS(=O)(=O)c1ccc(Cl)cc1", 8.49]
]}

====

assay: A CellTox Green Cytotoxicity Assay to monitor cytotoxicity in HEK293 cells - 32 hour (AID 1224881); settings: CellTox Green fluorescence; series mostly up to 76.8 µM; also: % is scaled to controls: 0 for no effect and ±100 for the full control effect; nearly all actives have a fitted effect of over 40% in size
Results filed as inconclusive are left out. Calls of active or inactive are those of the source. The call rests on the fitted dose curve; in most records, active means well fitted activation curve with a large enough effect in the repeat runs; inconclusive means weak or mixed curves; inactive means flat fitted curve, though single readings scatter.

{"columns": ["compound", "cytotoxicity increase"],
 "data": [
  ["CCN(CC)CCNC(=O)c1ccc(N)cc1", "inactive"],
  ["O=c1c(O)c(-c2ccc(O)c(O)c2)oc2cc(O)cc(O)c12", "inactive"],
  ["Cc1cc(C)cc(O)c1", "inactive"],
  ["O=c1n(CCCN2CCN(c3cccc(Cl)c3)CC2)nc2ccccn12", "inactive"],
  ["CCCCC(=O)O", "inactive"],
  ["CN1Cc2c(N)cccc2C(c2ccccc2)C1 (centres undefined)", "inactive"],
  ["O=C(NCC1CCCCN1)c1cc(OCC(F)(F)F)ccc1OCC(F)(F)F (centres undefined)", "inactive"],
  ["O=C(c1ccccc1)c1ccc(O)c(O)c1O", "inactive"],
  ["COc1ccc(N)c(OC)c1", "inactive"],
  ["Cc1ncc(CO)c(CO)c1O", "inactive"],
  ["CC1(C)C(=O)N(Cl)C(=O)N1Cl", "inactive"],
  ["Oc1ccc(Cc2ccccc2O)cc1", "inactive"],
  ["CC[N+](CC)(CC(=O)Nc1c(C)cccc1C)Cc1ccccc1", "inactive"],
  ["O=C(O)C1=NN(c2ccc(S(=O)(=O)O)cc2)C(=O)C1", "inactive"]
]}

The measurements presented in this section are drawn from PubChem BioAssay (Tox21).
